Assay: pKa by HCl/KOH titration
Assay type: physicochemical
Settings: titration with HCl (25 mM) and KOH (25 mM)
Measure name: pKa
I'd appreciate a reply containing only the number, no unit.

pKa recorded for this molecule, "COc1cccc(/C=C/C(=O)c2cc3ccccc3oc2=O)c1" , is 5.66
